test-description: Stability in liver microsomes, dog
Class key for Trep Concentration 20 min values: I = under 0.02 µM, II = from 0.02 µM up to 0.3 µM, III = 0.3 µM and over

These solved cases illustrate the format of a correct answer.
Task item: Tag the class for CCCCCC(CCC1C(O)CC2Cc3c(cccc3OCC(=O)O)CC21)OC(=O)OCC (stereo not shown) [XVI]
Reply: III

Task item: Which bin, given its Trep Concentration 20 min, does CCCCCC(O)CCC1C(OC(=O)CCC(=O)O)CC2Cc3c(cccc3OCC(=O)O)CC21 (stereo not shown) [XXII] occupy?
Reply: I

Others:
Task item: // bin(item) where item = CCCCCC(CCC1C(O)CC2Cc3c(cccc3OCC(=O)O)CC21)OC(N)=O (stereo not shown) [XLII]
Reply: III

Task item: The entry to classify is CCCCCC(CCC1C(O)CC2Cc3c(cccc3OCC(=O)O)CC21)OC(=O)C(C)(C)C (stereo not shown) [XLIX] ; which class holds it?
Reply: III

Task item: State the band of CCCCCC(O)CCC1C(OC)CC2Cc3c(cccc3OCC(=O)O)CC21 (stereo not shown) [LIII]
Reply: II

Task item: Sort into band: CCCCCC(CCC1C(O)CC2Cc3c(cccc3OCC(=O)O)CC21)OCC (stereo not shown) [XLVII]
Reply: I

Task item: Lab log: CCCCCC(CCC1C(O)CC2Cc3c(cccc3OCC(=O)O)CC21)OC(=O)c1ccccc1O (stereo not shown) [LXI] — assign Trep Concentration 20 min category
Reply: I

Task item: Kindly identify the class of CCCCCC(CCC1C(O)CC2Cc3c(cccc3OCC(=O)O)CC21)OC(=O)CCC(=O)O (stereo not shown) [XX] .
Reply: II

* * *

test-description: Stability in cryopreserved hepatocytes, rat
study-conditions: rat
Note to self: values exactly at 40 µmol·min/L are condition met. So AUC at or above 40 µmol·min/L is condition met, below is condition not met.

Task item: Please tell me: is the compound CCCCCC(CCC1C(O)CC2Cc3c(cccc3OCC(=O)O)CC21)OC(=O)C1CCCN1 (centres unmarked) [XXXVI] at or over 40 µmol·min/L in terms of AUC?
Reply: condition met

---
Task item: Textbook exercise: given the entry CCCCCC(CCC1C(O)CC2Cc3c(cccc3OCC(=O)O)CC21)OCCC (centres unmarked) [XLVI] , state whether its AUC is greater than or equal to 40 µmol·min/L.
Reply: condition not met

Task item: API: above_or_equal(metric=AUC, cutoff=40 µmol·min/L) for item CCCCCC(CCC1C(O)CC2Cc3c(cccc3OCC(=O)O)CC21)OC(=O)COc1ccc(O)cc1 (centres unmarked) [LIV]
Reply: condition met

* * *

AUC for assorted molecules
study-conditions: dog
Hi! Could you send only the number? It should be in µmol·min/L, unit omitted.

Sample answers from the record:
Task item: # query: AUC of entry CCCCCC(CCC1C(O)CC2Cc3c(cccc3OCC(=O)O)CC21)OC(N)=O (centres unmarked)
Reply: 18.91

Task item: Would you mind telling me what AUC value was observed for CCCCCC1CCC2C(CC3Cc4c(cccc4OCC(=O)O)CC32)OP(=O)(Oc2ccccc2)O1 (mixture of isomers) ?
Reply: 0.11

Task item: Record request: AUC value, item CCCCCC(CCC1C(O)CC2Cc3c(cccc3OCC(=O)O)CC21)Oc1ccccc1C(=O)O (centres unmarked)
Reply: 0.00

Task item: Give its AUC value. Item: CCCCCC(CCC1C(O)CC2Cc3c(cccc3OCC(=O)O)CC21)OC(=O)COc1ccc(O)cc1 (centres unmarked)
Reply: 39.99

Shift focus to the following entry.
Task item: Consider the molecule shown here: CCCCCC(CCC1C(O)CC2Cc3c(cccc3OCC(=O)O)CC21)OC(=O)COc1ccc(OC(F)(F)F)cc1 (centres unmarked) What is its recorded AUC?
Reply: 35.13
